Target: T1, VEGF165 (UniProt P15692-4 27-191, biotinylated in the ELISA of Example 4 (site not stated))
T1 construct: also called biotinylated VEGF165; soluble VEGF
T1 sequence (P15692 other isoform, or with tags, fused parts or gaps limits assumed): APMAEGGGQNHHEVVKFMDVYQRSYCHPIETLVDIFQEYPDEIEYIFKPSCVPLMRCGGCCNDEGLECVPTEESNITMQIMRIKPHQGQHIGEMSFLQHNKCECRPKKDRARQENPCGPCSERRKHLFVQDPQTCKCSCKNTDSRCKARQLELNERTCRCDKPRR
Assay: SPR (ProteOn), VEGF165 immobilized, multi-trace 50-0.195 nM, 25 C
Give pKd for every item shown.
For clarity, pKd is expressed as the negative log10 of concentration in mol/L.

Any idea what pKd was measured for 2-in-1 DARPin 11 (SEQ ID NO: 6) (designed binder, N3C mono-domain; purified by its His-tag) DLDKKLLEAARAGQDDEVRILLKAGADVNAKDSTGWTPLHLAAPWGHPEIVEVLLKAGADVNAKDVYGWTPLHIAAASGHLEIVEVLLKAGADVNAKDWLGWTPLHLAASHGHLEIVEVLLKAGADVNAQDKSGKTPADLAARAGHQDIAEVLQKAA ?
7.95

Any idea what pKd was measured for 2-in-1 DARPin 13 (SEQ ID NO: 8) (designed binder, N3C mono-domain; purified by its His-tag) DLDKKLLEAARAGQDDEVRILLKAGADVNAKDSTGWTPLHLAAPWGHPEIVEVLLKAGADVNAKDFYGWTPLHLAAAAGHLEIVEVLLKAGADVNAKDWLGWTPLHLAASHGHLEIVEVLLKAGADVNAQDKSGKTPADLAARAGHQDIAEVLQKAA ?
9.09

Any idea what pKd was measured for 2-in-1 DARPin 18 (SEQ ID NO: 11) (designed binder, N4C mono-domain; purified by its His-tag) DLDKKLLEAARAGQDDEVRILLKAGADVNAKDSTGWTPLHLAAPWGHPEIVEVLLKAGADVNAKDFQGWTPLHLAAAAGHLEIVEVLLKAGADVNAKDVYGWTPLHIAAASGHLEIVEVLLKAGADVNAKDWLGWTPLHLAASHGHLEIVEVLLKAGADVNAQDKSGKTPADLAARAGHQDIAEVLQKAA ?
10.00
